Tested on: HEK-293T
procedure.details: Cytotoxicity against human HEK293T cells expressing AP-1 after 18 hrs by XTT assay
Format: cell-based
parameter: IC50 (µM)
Kindly answer with a numeric value in µM, unit omitted.

Give HEK-293T IC50 for COC1=C(C)[C@@H]2CC(=O)O[C@@H]3C[C@H]4[C@H](C)[C@@H](O)[C@H](O)C(=O)[C@]4(C)[C@@H](C1=O)[C@@]32C [NOTHOSPONDIN]
10

###

tested.target: Transcription factor Jun (Homo sapiens)
Sequence (P05412 whole entry): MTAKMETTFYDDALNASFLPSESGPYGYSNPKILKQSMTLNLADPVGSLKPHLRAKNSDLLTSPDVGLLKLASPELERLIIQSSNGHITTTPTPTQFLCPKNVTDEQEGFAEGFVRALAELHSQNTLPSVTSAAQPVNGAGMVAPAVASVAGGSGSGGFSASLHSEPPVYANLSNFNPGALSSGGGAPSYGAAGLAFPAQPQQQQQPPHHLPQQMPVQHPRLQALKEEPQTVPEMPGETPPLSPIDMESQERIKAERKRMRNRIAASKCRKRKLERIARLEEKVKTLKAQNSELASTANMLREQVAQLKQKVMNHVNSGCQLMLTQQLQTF
procedure.details: Inhibition of TPA-induced AP-1 activity expressed in human HEK293T cells treated 1 hr before TPA challenge measured after 18 hrs by FRET based beta-lactamase reporter assay
parameter: EC50 (nM)
Kindly answer with a numeric value in nM, unit omitted.

INSERT INTO assay_data (structure_smiles_string, parameter, scale_unit, reported_value) VALUES
  ('COC1=C(C)[C@@H]2CC(=O)O[C@@H]3C[C@H]4[C@H](C)[C@@H](O)[C@H](O)C(=O)[C@]4(C)[C@@H](C1=O)[C@@]32C', 'EC50', 'nM', 1490);

Now look at this one.
If you can, please state the reported EC50 value of "CC[C@](C)(O)C(=O)O[C@H]1C(=O)O[C@@H]2C[C@H]3C(C)=CC(=O)[C@@H](O)[C@]3(C)[C@H]3[C@@]4(O)OC[C@]32[C@@H]1[C@@H](C)[C@H]4O" .
130

Data provenance: ChEMBL document CHEMBL1806496
